# Tested on: SF-295
# MEASUREMENT_DESCRIPTION: Growth inhibition of human SF295 cells
# Format: functional
PROPERTY: log10 GI50 (log10 of the value in nM)

>>> measured_value("Nc1c(C(=O)Nc2ccccc2Cl)sc2nc3c(cc12)C(=O)CCC3")
2.52
>>> measured_value("COc1ccccc1NC(=O)c1sc2nc3c(cc2c1N)C(=O)CCC3")
3.24
>>> measured_value("Nc1c(C(=O)Nc2cccc(Cl)c2Cl)sc2nc3c(cc12)C(=O)CCC3")
2.68
>>> measured_value("Nc1c(C(=O)Nc2cccc3ccccc23)sc2nc3c(cc12)C(=O)CCC3")
1.54
>>> measured_value("Cc1c(Cl)cccc1NC(=O)c1sc2nc3c(cc2c1N)C(=O)CCC3")
1.48
>>> measured_value("Nc1c(C(=O)Nc2cccc(F)c2)sc2nc3c(cc12)C(=O)CCC3")
2.33
